Catalogue of pIC50 readings, one per entry.
protocol.summary: Inhibition of chymotrypsin like activity of partially purified human proteasome
Assay type: subcellular
For clarity, pIC50 is expressed as the negative log10 of concentration in mol/L.

COc1ccc(C[C@H](NC(=O)[C@@H](NC(=O)[C@H](Cc2ccc(OC)cc2)NC(=O)c2ccc(Br)cn2)C(C)C)B(O)O)cc1
7.03

Exercise: Requested field: pIC50. Item: CC(C)C[C@H](NC(=O)[C@H](Cc1ccccc1)NC(=O)c1cnccn1)B(O)O
Key: 7.41

Exercise: Requested field: pIC50. Item: COc1ccc(C[C@H](NC(=O)[C@@H](NC(=O)[C@H](Cc2ccc(OC)cc2)NC(=O)c2cccc3cccnc23)C(C)C)B(O)O)cc1
Key: 7.03

Exercise: Requested field: pIC50. Item: COc1ccc(C[C@H](NC(=O)[C@@H](NC(=O)[C@H](Cc2ccc(OC)cc2)NC(=O)c2cc(Cl)ccn2)C(C)C)B(O)O)cc1
Key: 7.06

###

protocol.summary: Inhibition of caspase like activity of partially purified human proteasome
Format: subcellular
property.name: IC50 (µM)
Numbers only; they are read as µM.

Exercise: Requested field: IC50. Item: COc1ccc(C[C@H](NC(=O)[C@@H](NC(=O)[C@H](Cc2ccc(OC)cc2)NC(=O)c2cc([N+](=O)[O-])ccn2)C(C)C)B(O)O)cc1
Key: 34

Exercise: Requested field: IC50. Item: COc1ccc(C[C@H](NC(=O)[C@@H](NC(=O)[C@H](Cc2ccc(OC)cc2)NC(=O)Cc2cccc3ccccc23)C(C)C)B(O)O)cc1
Key: 39

Exercise: Requested field: IC50. Item: COc1ccc(C[C@H](NC(=O)[C@@H](NC(=O)[C@H](Cc2ccc(OC)cc2)NC(=O)Cc2cccc(Oc3ccccc3)c2)C(C)C)B(O)O)cc1
Key: 29

Exercise: Requested field: IC50. Item: COc1ccc(C[C@H](NC(=O)[C@@H](NC(=O)[C@H](Cc2ccc(OC)cc2)NC(=O)c2ncccc2OC)C(C)C)B(O)O)cc1
Key: 26

Exercise: Requested field: IC50. Item: COc1ccc(C[C@H](NC(=O)[C@@H](NC(=O)[C@H](Cc2ccc(OC)cc2)NC(=O)c2ccc(OC)cn2)C(C)C)B(O)O)cc1
Key: 21

Exercise: Requested field: IC50. Item: COc1ccc(C[C@H](NC(=O)[C@@H](NC(=O)[C@H](Cc2ccc(OC)cc2)NC(=O)c2cccc(Br)n2)C(C)C)B(O)O)cc1
Key: 27

###

protocol.summary: Inhibition of caspase like activity of partially purified human proteasome
Type: subcellular
Catalogue of IC50 readings, one per entry.
Numbers only; they are read as µM.

As a guide, the following entries are already answered.
COc1ccc(C[C@H](NC(=O)[C@@H](NC(=O)[C@H](Cc2ccc(OC)cc2)NC(=O)c2nc(Cl)ccc2Cl)C(C)C)B(O)O)cc1
26
COc1ccc(C[C@H](NC(=O)[C@@H](NC(=O)[C@H](Cc2ccc(OC)cc2)NC(=O)c2cnccn2)C(C)C)B(O)O)cc1
33
COc1ccc(C[C@H](NC(=O)[C@@H](NC(=O)[C@H](Cc2ccc(OC)cc2)NC(=O)c2ccc(Br)cn2)C(C)C)B(O)O)cc1
24

Exercise: Requested field: IC50. Item: COc1ccc(C[C@H](NC(=O)[C@@H](NC(=O)[C@H](Cc2ccc(OC)cc2)NC(=O)c2cccc(F)n2)C(C)C)B(O)O)cc1
Key: 27

Exercise: Requested field: IC50. Item: COc1ccc(C[C@H](NC(=O)[C@@H](NC(=O)[C@H](Cc2ccc(OC)cc2)NC(=O)c2cc(C(F)(F)F)ccn2)C(C)C)B(O)O)cc1
Key: 25

Exercise: Requested field: IC50. Item: COc1ccc(C[C@H](NC(=O)[C@@H](NC(=O)[C@H](Cc2ccc(OC)cc2)NC(=O)c2cc(Br)ccn2)C(C)C)B(O)O)cc1
Key: 17

Exercise: Requested field: IC50. Item: COc1ccc(C[C@H](NC(=O)[C@@H](NC(=O)[C@H](Cc2ccc(OC)cc2)NC(=O)c2cccc(OC)n2)C(C)C)B(O)O)cc1
Key: 35

Exercise: Requested field: IC50. Item: COc1ccc(C[C@H](NC(=O)[C@@H](NC(=O)[C@H](Cc2ccc(OC)cc2)NC(=O)c2ncccc2F)C(C)C)B(O)O)cc1
Key: 25
